Biological target: UniProtKB Q16696
Experiment: in vitro
Assay type: biochemical
Conditions: human, pH 7.4, probe coumarin (7-hydroxylation), 20 μM in the secondary reaction
READOUT_TYPE: activity at 10 min, 20 µM
Hi, when you answer, please include the unit after the number. Thanks!

Request: Look up activity at 10 min, 20 µM for this molecule: Cc1coc2c1CC[C@@H](C)C2
Response: 91%

Let us move to another entry and its activity at 10 min, 20 µM.
Request: State the recorded activity at 10 min, 20 µM for this entry: CC(C)[C@@H]1CC[C@@H](C)C[C@H]1O
Response: 87%

---

Molecular target: CYP2A13 (Homo sapiens, UniProt Q16696)
Sequence (Q16696 whole entry): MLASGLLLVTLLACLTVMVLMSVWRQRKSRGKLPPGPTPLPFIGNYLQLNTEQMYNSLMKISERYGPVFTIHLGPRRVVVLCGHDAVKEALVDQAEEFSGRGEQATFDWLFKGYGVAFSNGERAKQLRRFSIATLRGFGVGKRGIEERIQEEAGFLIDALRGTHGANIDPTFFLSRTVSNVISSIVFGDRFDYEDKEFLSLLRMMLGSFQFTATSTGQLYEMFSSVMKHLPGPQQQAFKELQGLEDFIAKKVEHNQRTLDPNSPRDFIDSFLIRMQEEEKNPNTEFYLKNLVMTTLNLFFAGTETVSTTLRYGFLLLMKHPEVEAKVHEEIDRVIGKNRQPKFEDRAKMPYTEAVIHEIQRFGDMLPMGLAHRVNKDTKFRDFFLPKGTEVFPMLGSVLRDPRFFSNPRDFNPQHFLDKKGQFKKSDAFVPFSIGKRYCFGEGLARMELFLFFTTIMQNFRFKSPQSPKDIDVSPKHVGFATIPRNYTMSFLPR
READOUT_TYPE: pKi
One number for each entry, as −log10 of the molar value.

Request: What value of pKi on CYP2A13 (Homo sapiens, UniProt Q16696) does Cc1coc2c1CC[C@@H](C)C2 have?
Response: 5.91

---

As an illustration, consider measured Ki for molecules on CYP2A6 (Homo sapiens, UniProt P11509).
Sequence (P11509 whole entry): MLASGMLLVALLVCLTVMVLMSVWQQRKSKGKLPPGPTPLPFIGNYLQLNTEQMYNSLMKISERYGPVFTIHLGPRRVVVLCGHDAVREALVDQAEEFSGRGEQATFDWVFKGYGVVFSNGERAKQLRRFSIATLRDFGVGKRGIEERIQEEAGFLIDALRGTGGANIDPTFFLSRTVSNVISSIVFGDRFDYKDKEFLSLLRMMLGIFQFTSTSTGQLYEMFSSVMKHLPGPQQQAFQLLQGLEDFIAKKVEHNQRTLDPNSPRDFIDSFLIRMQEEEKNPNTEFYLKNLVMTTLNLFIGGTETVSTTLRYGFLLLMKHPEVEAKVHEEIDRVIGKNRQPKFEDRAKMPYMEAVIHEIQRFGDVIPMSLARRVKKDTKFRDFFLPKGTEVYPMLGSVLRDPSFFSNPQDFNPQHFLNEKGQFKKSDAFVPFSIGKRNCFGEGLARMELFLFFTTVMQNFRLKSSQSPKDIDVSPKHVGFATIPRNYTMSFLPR
Answers are plain numbers, in µM.

Request: Which Ki reading was recorded for the molecule CC(C)[C@@H]1CC[C@@H](C)C[C@H]1O [Menthol] ?
Response: 110

Next:
Request: What value of Ki has been reported for the following molecule? Cc1coc2c1CC[C@@H](C)C2 [Menthofuran]
Response: 0.29
